Test system: HD07M22r_s_at, Proteinase-Inhibitor (pir S71555, barley)
Experiment: GEP, barley DNA chip, probe set 2.4
Assay type: in vivo
Parameters: dose or concentration left out as unconfirmed
Details: Hordeum vulgare, topical; barley leaves 6 h after spray application; rates of Table 1 (S7 500); median induction factor vs control; read-out: Expression value, 2.4 HD07M22r_s_at
Procedure: Barley plants (cv. Baronesse) were grown in compost-filled pots (diameter: 10 cm) for 10 days in a controlled-environment cabinet under defined light, humidity and temperature conditions (white light, 70% atmospheric humidity, 24° C.). At the time of spray application, the seedlings were approximately 15 cm in size. […] The fluorescent data obtained were analyzed with the software Microarray Suite 5 from Affymetrix. […]
recorded-metric: fold induction
Give bare numbers.

CSC(=O)c1cccc2nnsc12    1
O=C(O)C1=NN(c2ccc(Cl)cc2Cl)C(c2ccc(F)cc2)C1 (stereo not shown)    1
CCCCCC(C)OC(=O)COc1ccc(Cl)c2cccnc12 (stereo not shown)    1
O=C(O)c1cc(Cl)cc(Cl)c1O    1

Please go through the list and note fold induction for each compound.
1. COC(=O)C1=NN(c2ccc(Cl)cc2Cl)C(C)(C(=O)OC)C1 (stereo not shown)
2. NC(=O)c1ccc(C(F)(F)F)nc1O
3. CCOC(=O)C(Oc1ccc(Cl)c2cccnc12)C(=O)OCC

Result:
6.32
5.1
7.84
